// provenance: patent US20230265116A1

Biological target: EGFR L858R/C797S (BaF3 LC cells) (Homo sapiens, UniProt P00533, C797S/L858R)
Construct: expressed in transfected cells; host or cells: BaF3
Sequence (P00533 25-1210 C797S/L858R): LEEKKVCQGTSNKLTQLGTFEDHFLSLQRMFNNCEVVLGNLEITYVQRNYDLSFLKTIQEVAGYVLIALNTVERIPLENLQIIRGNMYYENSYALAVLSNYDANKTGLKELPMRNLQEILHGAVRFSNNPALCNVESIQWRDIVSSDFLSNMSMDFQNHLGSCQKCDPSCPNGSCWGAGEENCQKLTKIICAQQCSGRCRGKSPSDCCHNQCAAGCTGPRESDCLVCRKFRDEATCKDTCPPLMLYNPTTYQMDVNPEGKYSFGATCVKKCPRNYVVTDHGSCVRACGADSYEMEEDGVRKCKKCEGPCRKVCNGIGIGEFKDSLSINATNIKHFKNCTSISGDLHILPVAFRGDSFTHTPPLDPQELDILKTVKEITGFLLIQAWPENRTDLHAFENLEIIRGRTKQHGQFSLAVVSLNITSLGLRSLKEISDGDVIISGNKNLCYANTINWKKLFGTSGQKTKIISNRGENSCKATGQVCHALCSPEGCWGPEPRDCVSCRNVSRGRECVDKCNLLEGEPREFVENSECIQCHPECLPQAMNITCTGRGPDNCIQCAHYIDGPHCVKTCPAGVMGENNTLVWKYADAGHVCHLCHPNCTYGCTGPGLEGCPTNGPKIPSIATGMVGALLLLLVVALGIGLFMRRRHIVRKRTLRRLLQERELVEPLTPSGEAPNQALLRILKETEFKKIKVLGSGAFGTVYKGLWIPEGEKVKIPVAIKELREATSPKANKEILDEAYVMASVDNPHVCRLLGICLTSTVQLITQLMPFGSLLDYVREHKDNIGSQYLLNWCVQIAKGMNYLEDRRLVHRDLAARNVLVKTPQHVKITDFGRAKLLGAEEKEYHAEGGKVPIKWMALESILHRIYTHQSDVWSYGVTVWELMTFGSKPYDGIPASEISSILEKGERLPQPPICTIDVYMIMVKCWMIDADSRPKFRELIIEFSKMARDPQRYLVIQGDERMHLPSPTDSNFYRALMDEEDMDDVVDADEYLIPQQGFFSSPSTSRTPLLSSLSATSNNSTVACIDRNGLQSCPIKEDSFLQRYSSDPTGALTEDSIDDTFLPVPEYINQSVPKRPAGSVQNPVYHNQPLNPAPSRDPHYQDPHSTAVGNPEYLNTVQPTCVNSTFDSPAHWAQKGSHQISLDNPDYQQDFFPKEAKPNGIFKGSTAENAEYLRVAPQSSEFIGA
Test: EGFR degradation HTRF assay, BaF3 LC cells
Type: cell-based
Details: BaF3 LC, 16h treatment, maximum percentage of degradation; read-out: BaF3 LC Dmax (%)
Label rule, in plain words: Dmax of 90% and up is Satisfied, under 90% is Not satisfied.

compound="CCOc1cc(N2CCC(N3CCN(CC4CN(c5cccc6c5oc(=O)n6C5CCC(=O)NC5=O)C4)CC3)CC2)c(CC)cc1Nc1ncc(Br)c(Nc2ccc3nc(CC)ccc3c2P(C)(C)=O)n1 (centres unmarked)" measured_on="EGFR L858R/C797S (BaF3 LC cells) (Homo sapiens, UniProt P00533, C797S/L858R)" discrete_label=Satisfied
compound="CCOc1cc(N2CCC(N3CCN(CCc4cc5oc(=O)n(C6CCC(=O)NC6=O)c5cc4F)CC3)CC2)c(CC)cc1Nc1ncc(Br)c(Nc2ccc3nc(CC)ccc3c2P(C)(C)=O)n1 (centres unmarked)" measured_on="EGFR L858R/C797S (BaF3 LC cells) (Homo sapiens, UniProt P00533, C797S/L858R)" discrete_label="Not satisfied"
